# TESTED_ON: T1, Biotin-huCGRPaSA (human, not fully specified; biotin (position not given))
# T1 construct: exact construct ('aSA') not explained; also called Biotin CGRPaSA; full-length (1-37) CGRP
# T1 peptide: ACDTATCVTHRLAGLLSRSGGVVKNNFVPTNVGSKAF
# PROTOCOL_DESCRIPTION: ELISA, supernatant; relative to chimeric C245
REPORTED_PROPERTY: Relative binding activity, %
Write the quantity with the unit trailing the number.

BINDER	Relative binding activity, %
hu146 (antibody, V domains shown, 3E5 HC-1/1A2 LC2-3) VH: QVQLVQSGAEVKKPGASVKVSCKTSGYTFTDYNMHWVRQAPGQRLEWMGYISPYNGGTAYNQKFKFRVTLTVDTSSSTAYMELSSLRSEDTAVYYCAREGLGGYWGQGTLVTVSS VL: EIVLTQSPATLSLSPGERATLSCKASQNIDYDGYAYLNWYQQKPGQAPRVLIYSVFNLESGIPARFSGSGSGTDFTLTISSLEPEDFAVYYCQQSNEFPYTFGQGTKLEIK	107%

State the recorded Relative binding activity, % for this entry: hu223 (antibody, V domains shown, 3C1 HC-1/3C1 LC-2) VH: QVQLVQSGAEVKKPGASVKVSCKASGYSFTGYTMNWVRQAPGQRLEWMGLINPYIGNTHYNQKFKDRVTFTVDRSSSTAYMELSSLRSEDTAVYYCARELDSGFDYWGQGTLVTVSS VL: DVVMTQTPLSLSVTPGQPASISCRSSQNIVHSNGDTYLEWYLQKPGQSPQLLIYKVSNRFSGVPDRFSGSGSGTDFTLKISRVEAEDVGVYYCYQGSHVPWTFGQGTKLEIK
71%
